Item-by-item account of pEC50
System: EGFR L858R/C797S Ba/F3 cells
Assay: Ba/F3 cell proliferation (Cell Titer Glo), EGFR L858R/C797S
Assay type: cell-based, murine
Details: Mus musculus, BaF3, Ba/F3 cells with EGFR L858R/C797S, 72 hours exposure, read-out: L/C797S
By convention, pEC50 is the negative base-10 log of a molar concentration.

Need pEC50, item `C=CC(=O)Nc1csc(C(=O)Nc2nc3cccc(C)c3n2[C@@H]2CCCCN(C(C)=O)C2)c1`
6.76

Now the same for `C=CC(=O)Nc1cc(C(=O)Nc2nc3cccc(C)c3n2[C@@H]2CCCCN(C(C)=O)C2)cs1`
6.37

Just for reference, patent US20230295137A1 is where these values come from.
